experiment: BSK_hDFCGF_SRB: Viability Assessment in the BioMAP Diversity Plus: hDFCGF Assay (AID 2283061); settings: primary human foreskin fibroblasts;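 further: cells exposed to compound for 24 h before the read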
Active and inactive are the calls of the source. How the source made its calls: active means hit-call score of the fitted dose curve at least 0.9, where 1 is the maximum; inactive means score below 0.9.
Measured AC50, listed per entry.

Example compounds with recorded AC50:
>>> result("C#CC1(O)CC[C@H]2[C@@H]3CCC4=CCCC[C@@H]4[C@H]3CC[C@@]21C (stereo partly drawn)")
"35.2 µM (active)"
>>> result("COCc1c(C(C)C)nc(C(C)C)c(/C=C/[C@@H](O)C[C@@H](O)CC(=O)O)c1-c1ccc(F)cc1")
"0.32 µM (active)"

Now look at this one.
Tell me the measured AC50 of CCCCC(CC)COC(=O)c1ccccc1O (stereo not drawn) , please.
14.4 µM (active)

###

test: ATG_ERE_CIS: Attagene CIS-FACTORIAL HepG2 Assay for Estrogen Response Element (ERE) (AID 2282940); details: HepG2 ERE cis-reporter, Attagene RNA transcript; actives raise or lower the signal
Calls of active or inactive are those of the source. How the source made its calls: active means hit-call score of the fitted dose curve at least 0.9, where 1 is the maximum; inactive means score below 0.9.
ENDPOINT_LABEL: AC50

Example compounds with recorded AC50:
>>> result("CC1OC1C1CCC2(C)OC2C1 (stereo not given)")
"inactive"
>>> result("O=C1CCCC1")
"inactive"
>>> result("O=C(c1ccc(O)cc1)c1ccc(O)cc1O")
"0.84 µM (active)"
>>> result("CC(C)CC(O)Cc1ccccc1 (stereo not given)")
"inactive"

Tell me the measured AC50 of COC(=O)c1sccc1S(N)(=O)=O , please.
inactive

Tell me the measured AC50 of CCCOC(=O)CCCCC(=O)OCCC , please.
inactive

Tell me the measured AC50 of CCC(=O)Oc1ccc(/C(CC)=C(\CC)c2ccc(OC(=O)CC)cc2)cc1 , please.
0.0825 µM (active)

###

Measured AC50, listed per entry.
test system: TTR (gene 7276); assay: CCTE_GLTED_hTTR_0.125uM: CCTE's human Transthyretin (hTTR) Inhibition Assay, with 0.125uM TTR, Great Lakes Toxicology and Ecology Division (GLTED) Lab (AID 2284431);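 further: hits lower the fluorescence signal relative to DMSO baseline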
Active and inactive are the calls of the source. The calls were made as follows: active = hit-call score of the fitted dose curve at least 0.9, where 1 is the maximum; inactive = score below 0.9.

Example compounds with recorded AC50:
>>> result("CCCCCCCCCCCCCOP(=O)(O)O")
"780 nM (active)"
>>> result("CCCCCCCC/C=C\\CCCCCCCC(=O)O")
"3320 nM (active)"

Tell me the measured AC50 of COC(=O)c1c(C)cc(O)c(C)c1O , please.
1290 nM (active)

###

read-out: Interleukin-8 (IL8), CXCL8 (gene 3576); experiment: BSK_3C_IL8: BioMAP Diversity Plus: 3C Assay for Interleukin-8 (IL8) Biomarker Activity (AID 2283020); settings: primary human endothelial cells (HUVEC); actives raise or lower the signal
Active and inactive are the calls of the source. The calls were made as follows: active = hit-call score of the fitted dose curve at least 0.9, where 1 is the maximum; inactive = score below 0.9.
Outcomes you can answer with include only these: yes (1) = active, no (0) = inactive

Past entries and their recorded results:
>>> group_label("O=C(Nc1ccccc1SSc1ccccc1NC(=O)c1ccccc1)c1ccccc1")
"no (0)"
>>> group_label("CCCCNc1ccc(NCCCC)c2c1C(=O)c1ccccc1C2=O")
"no (0)"

Call for entry CCCCCCCCCCCCCCCC[N+](C)(C)CC :
yes (1)

Call for entry O=C(c1ccc(O)cc1)c1ccc(O)cc1O :
no (0)

###

biological target: human Peroxisome Proliferator-activated Receptor delta (PPARd), PPARD (gene 5467) (UniProt Q03181); experiment: ATG_PPARd_TRANS: Attagene TRANS-FACTORIAL HepG2 Assay for human Peroxisome Proliferator-activated Receptor delta (PPARd) (AID 2283002)
Sequence (Q03181 whole entry, looked up): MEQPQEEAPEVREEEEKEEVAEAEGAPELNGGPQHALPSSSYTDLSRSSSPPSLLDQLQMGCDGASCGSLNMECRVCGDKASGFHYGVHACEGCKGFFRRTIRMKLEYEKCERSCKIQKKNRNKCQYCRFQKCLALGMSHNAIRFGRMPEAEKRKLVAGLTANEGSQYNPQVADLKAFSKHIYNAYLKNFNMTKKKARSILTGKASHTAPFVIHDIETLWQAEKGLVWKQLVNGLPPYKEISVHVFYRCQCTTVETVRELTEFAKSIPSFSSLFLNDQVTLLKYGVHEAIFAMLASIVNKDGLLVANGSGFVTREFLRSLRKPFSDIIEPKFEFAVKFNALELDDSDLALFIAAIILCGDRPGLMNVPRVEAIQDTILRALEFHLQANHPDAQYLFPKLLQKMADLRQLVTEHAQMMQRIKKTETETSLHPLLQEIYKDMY
Records with an inconclusive call do not appear. Activity calls are given as the source filed them. Rule for the calls: active = hit-call score of the fitted dose curve at least 0.9, where 1 is the maximum; inconclusive = response in the unintended direction; inactive = score below 0.9.
Outcomes you can answer with include only these: true (1) (active), false (0) (inactive)

>>> group_label("CCCCCCCCCCCSCC(=O)O")
"true (1)"
>>> group_label("CCCOCCOCCOCCO")
"false (0)"
>>> group_label("O=S(=O)(Oc1ccc(Cl)cc1Cl)c1ccccc1")
"false (0)"
>>> group_label("COC(=O)/C=C/C(C)=C\\C=C\\C(C)=C\\C=C\\C=C(C)\\C=C\\C=C(C)\\C=C\\C(=O)O")
"false (0)"

Call for entry O=S(=O)(O)c1ccc2cc(O)c(S(=O)(=O)O)cc2c1 :
false (0)

Call for entry c1cc(C(c2ccc(OCC3CO3)cc2)C(c2ccc(OCC3CO3)cc2)c2ccc(OCC3CO3)cc2)ccc1OCC1CO1 (configuration not stated) :
false (0)

Call for entry Cc1ccc2c(c1)C(=O)c1ccccc1C2=O :
false (0)

###

assay: CCTE_Deisenroth_AIME_384WELL_CTox_Inactive: Cytotoxicity Assessment (CTOX) in CCTE's 384-well Estrogen Receptor Transactivation Assay without AIME metabolic competence (metabolism negative), Deisenroth Lab (AID 2284039);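 further: cell viability via live-cell protease substrate cleaved to fluorescent probe; cells exposed 24 h to medium preincubated 2 h with alginate-water beads without S9; loss of fluorescence signal means loss of viability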
Inconclusive results are not listed. Active and inactive are the calls of the source. How the source made its calls: active means hit-call score of the fitted dose curve at least 0.9, where 1 is the maximum; inconclusive means response in the unintended direction; inactive means score below 0.9.
Outcomes you can answer with include only these: Y for active, N for inactive

Past entries and their recorded results:
>>> group_label("OC1CCCC1")
"N"
>>> group_label("CC=C1CC2C=CC1C2 (centres undefined)")
"N"
>>> group_label("O=c1cc(-c2ccccc2)oc2ccccc12")
"N"

Call for entry CCCCC/C=C\CCC=O :
N

Call for entry CCCCCCCC[N+](C)(CCCCCCCC)CCCCCCCC :
Y

Call for entry CC1=NN(c2cc(S(=O)(=O)O)ccc2Cl)C(=O)C1N=Nc1ccccc1 (centres undefined) :
N

Call for entry O=C(C(Cl)Cl)N1CCOC12CCCCC2 :
Y

Call for entry CCCCCCCCCCOS(=O)(=O)O :
Y

Call for entry CCN(CCC#N)c1ccc(N=Nc2c(Cl)cc([N+](=O)[O-])cc2Cl)cc1 :
Y

###

experiment: ATG_RORE_CIS: Attagene CIS-FACTORIAL HepG2 Assay for human RAR-related Orphan Receptor Element (RORE) (AID 2282959); conditions: HepG2 Attagene cis-factorial RORE reporter, mRNA; actives raise or lower the signal
Active and inactive are the calls of the source. How the source made its calls: active means hit-call score of the fitted dose curve at least 0.9, where 1 is the maximum; inactive means score below 0.9.
Outcomes you can answer with include only these: y (active), n (inactive)

Past entries and their recorded results:
>>> group_label("N#CCc1ccc(Cl)cc1Cl")
"n"
>>> group_label("O=C1CCCN1CCO")
"n"
>>> group_label("CCCCCCCC/C=C\\CCCCCCCC(=O)OCCO")
"n"
>>> group_label("O=c1n(CCO)c(=O)n(CCO)c(=O)n1CCO")
"n"

Call for entry CC1(C)O[C@@H]2C[C@H]3[C@@H]4C[C@H](F)C5=CC(=O)CC[C@]5(C)[C@H]4[C@@H](O)C[C@]3(C)[C@]2(C(=O)CO)O1 :
n

Call for entry CCCCCCCOC(=O)CCC :
n

Call for entry [Cl][Nd]([Cl])[Cl] :
n

###

target: Bile acid receptor (Homo sapiens); test: ATG_FXR_TRANS: Attagene TRANS-FACTORIAL HepG2 Assay for Farnesoid X Receptor (FXR) (AID 2282979); conditions: HepG2 Attagene TRANS FXR-GAL4 reporter transcription;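 further: hits raise reporter mRNA above DMSO so AC50 marks FXR activation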
Records with an inconclusive call do not appear. Active and inactive are the calls of the source. The calls were made as follows: active = hit-call score of the fitted dose curve at least 0.9, where 1 is the maximum; inconclusive = response in the unintended direction; inactive = score below 0.9.
Outcomes you can answer with include only these: active, inactive

Past entries and their recorded results:
>>> group_label("C=C(C)C(=O)OCC(C)C")
"inactive"
>>> group_label("CC(C)c1ccc2c(C(C)C)cc(C(C)C)c(S(=O)(=O)O)c2c1")
"inactive"
>>> group_label("C=C1[C@H]2CC[C@@H]3[C@H]2C(C)(C)CCC[C@]13C")
"inactive"

Call for entry CC1=NN(c2cc(S(=O)(=O)O)ccc2Cl)C(=O)C1N=Nc1ccccc1 (stereo unspecified) :
inactive

Call for entry C=CCOc1c(Br)cc(Br)cc1Br :
inactive

Call for entry c1ccc(CCCc2ccncc2)cc1 :
inactive

Call for entry O=C(Nc1cccc(C(F)(F)F)c1)c1cc(Br)cc(Br)c1O :
inactive

Call for entry c1cc(N(CC2CO2)CC2CO2)ccc1OCC1CO1 (stereo unspecified) :
inactive

Call for entry CC(=O)OCC(C)OC(C)=O (stereo unspecified) :
inactive

Call for entry O=C1c2cccc(O)c2C(=O)c2c(O)cc(CO)cc21 :
inactive

Call for entry Cc1ccc(C2OC[C@@H]3OC(c4ccc(C)cc4)O[C@H]([C@H](O)CO)[C@@H]3O2)cc1 (stereo partly specified) :
inactive

Call for entry CC/C=C\C/C=C\C/C=C\CCCCCCCC(=O)O :
inactive

Call for entry O=C1Nc2ccccc2C1(c1ccc(O)cc1)c1ccc(O)cc1 :
active

Call for entry CCCCCCCCCCCCCCCC[N+](C)(C)CC :
inactive

Call for entry CCOC(F)(F)C(F)(F)C(F)(F)C(F)(F)F :
inactive

Call for entry Cn1c(=O)[nH]c2ncn(C)c2c1=O :
inactive

Call for entry CCc1c(C(=O)O)c(=O)cnn1-c1ccc(Cl)cc1 :
inactive

Call for entry O=c1n(CCO)c(=O)n(CCO)c(=O)n1CCO :
inactive

Call for entry C/C=C\C/C=C/CCCCCCCCOC(C)=O :
inactive

Call for entry O=[N+]([O-])C1(Br)COCOC1 :
inactive

Call for entry O=Cc1ccc(CO)o1 :
inactive

Origin of the recorded values: PubChem BioAssay (EPA / NIEHS)
